# credit: ChEMBL document CHEMBL1201862

Property: AC50

Please report AC50 with Cytochrome P450 3A4 (Homo sapiens) for item Cc1ccc(NC(=O)C2C3CCCC2C3c2ccccc2)cc1C (stereo unspecified) . 8.91 µM (inconclusive)

Answer with AC50 of Cc1nc2cnc(OCc3ccccc3)nc2n(CCc2ccccc2)c1=O measured for Cytochrome P450 3A4 (Homo sapiens). 25.1 µM (inconclusive)

# lookup: Cytochrome P450 3A4 (Homo sapiens) AC50, key = COc1ccccc1Nc1nc(-c2sc(NC(=O)c3ccccc3)nc2C)cs1 15.8 µM (inconclusive)

Enter recorded AC50 with Cytochrome P450 3A4 (Homo sapiens) for COc1cccc(-c2cc3nc(-c4ccccc4)cc(N4CCC5(CC4)OCCO5)n3n2)c1 here. 20 µM (inconclusive)

State recorded AC50 with Cytochrome P450 3A4 (Homo sapiens), entry Fc1cccc(C2NC(S)=NC3=C2N2CCC3CC2)c1 (stereo unspecified) , no comment. 25.1 µM (inconclusive)

Recall the reported AC50 of CC(C)CN1CCCC2(CCN(C(=O)Oc3ccccc3)CC2)C1 on Cytochrome P450 3A4 (Homo sapiens) and write it down. 25.1 µM (inconclusive)

Provide AC50, tested on Cytochrome P450 3A4 (Homo sapiens), for Nc1nc(Cc2ccccc2)nc(Cc2ccccc2)c1-c1ccccc1 . 3.16 µM (inconclusive)

Fill in: AC50 on Cytochrome P450 3A4 (Homo sapiens), entry Cc1ccc(C)c(C(=O)C2=C(O)C(=O)N(CCN3CCOCC3)C2c2ccco2)c1 (stereo unspecified) 39.8 µM (inconclusive)

// fetch AC50 for COc1cc(C2C(C#N)=C(N)OC3=C2C(=O)CCC3)cc(OC)c1OC(=O)N1CCOCC1 (stereo unspecified) ; system: Cytochrome P450 3A4 (Homo sapiens) 25.1 µM (inconclusive)

Print Cytochrome P450 3A4 (Homo sapiens) AC50 for CCNc1ncc2nc(-c3cn(C)c4ccccc34)c(=O)n(CCC#N)c2n1 . 12.6 µM (inconclusive)

Give measured AC50 for O=[N+]([O-])c1cc(Cl)cc2c1nc(NCCO)c1ccccc12 (Cytochrome P450 3A4 (Homo sapiens)). 3.16 µM (inconclusive)

Find AC50 for Cn1cc(-c2nc3cncnc3n(C3CC3)c2=O)c2ccccc21 on Cytochrome P450 3A4 (Homo sapiens) and write it down. 7.94 µM (inconclusive)

Fill: AC50 (Cytochrome P450 3A4 (Homo sapiens)) for this compound CSc1nncc(/C(C)=N\Nc2ccccc2)n1 2.51 µM (inconclusive)

// output AC50; input COc1ccc(NC(=S)N(CCc2nc3cc(C)c(C)cc3[nH]2)Cc2cccnc2)cc1 ; system Cytochrome P450 3A4 (Homo sapiens) 0.891 µM (inconclusive)

State measured AC50 of the compound COc1ccc(OC)c(Nc2nc(-c3cccc([N+](=O)[O-])c3)nc3ccccc23)c1 with Cytochrome P450 3A4 (Homo sapiens). 2.82 µM (inconclusive)

Name the recorded AC50 of Cc1ccc(-c2c(C)sc(NC(=O)C3C4CCC(O4)C3C(=O)O)c2C(=O)OC(C)C)cc1 (stereo unspecified) , assay system Cytochrome P450 3A4 (Homo sapiens). 14.1 µM (inconclusive)
